Reference source for all entries: patent US20240352075A1

system-under-test: T1, human VPAC1 (human, UniProt P32241 31-457)
T1 sequence (looked up): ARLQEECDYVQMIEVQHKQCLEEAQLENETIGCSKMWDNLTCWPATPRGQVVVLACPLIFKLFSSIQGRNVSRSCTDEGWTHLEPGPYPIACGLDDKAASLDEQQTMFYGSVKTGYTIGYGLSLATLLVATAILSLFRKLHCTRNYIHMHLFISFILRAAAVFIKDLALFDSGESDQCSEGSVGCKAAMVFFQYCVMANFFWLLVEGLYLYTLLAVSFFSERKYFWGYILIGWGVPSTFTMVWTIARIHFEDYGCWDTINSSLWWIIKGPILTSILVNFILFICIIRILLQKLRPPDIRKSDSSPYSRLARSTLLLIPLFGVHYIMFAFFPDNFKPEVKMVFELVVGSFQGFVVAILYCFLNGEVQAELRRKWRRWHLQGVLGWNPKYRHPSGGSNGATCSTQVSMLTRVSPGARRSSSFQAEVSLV
procedure-text: cell-based or functional assay
Primed or numbered codes have the meaning given here. Where no end group is shown, it is not given here. [ ]: non-standard residue; d: D form. Glc = glucose on Ser (glucosylated Ser); Lac′ = lactose, glycoside on Ser; Nva = CCC[C@H](N)C(=O)O; Sar = CNCC(=O)O
Record form. Attribute: cAMP stimulation Emax (Table 1, differs from Table 3). Fill in for each entry.
Write the answer as a number in %, unit excluded.

Which measured cAMP stimulation Emax (Table 1, differs from Table 3) value corresponds to HSD[Sar]IFTDSYSRYRKQ[Nva]AVKKYLS(Lac′)-NH2 [CRA-TG-3027] ?
107

Data request, read-out cAMP stimulation Emax (Table 1, differs from Table 3), for HSDGIFTDSYSRYRKQ[Nva]AVKKYLS(Lac′)-NH2 [CRA-TG-3025]
118

Record request: cAMP stimulation Emax (Table 1, differs from Table 3) value, item HSDGIFTDSYSRYRKQ[Nva]AVKKYLS-NH2 (not fully specified) [CRA-DV-3022]
42

Tell me the measured cAMP stimulation Emax (Table 1, differs from Table 3) of HSDGIFTDSYSRYRKQ[Nva]AVKKYLS(Glc)S(Glc)-NH2 [CRA-DV-3024] , please.
147

Please look up its cAMP stimulation Emax (Table 1, differs from Table 3): HSDAIFTDSYSRYRKQ[Nva]AVKKYLS(Lac′)-NH2 [CRA-TG-3026]
124
